Kd reference
- ASSAYED TARGET: PA4985 solute binding protein (Pseudomonas aeruginosa, UniProt Q9HUI0)
- Sequence (Q9HUI0 entry or part of it): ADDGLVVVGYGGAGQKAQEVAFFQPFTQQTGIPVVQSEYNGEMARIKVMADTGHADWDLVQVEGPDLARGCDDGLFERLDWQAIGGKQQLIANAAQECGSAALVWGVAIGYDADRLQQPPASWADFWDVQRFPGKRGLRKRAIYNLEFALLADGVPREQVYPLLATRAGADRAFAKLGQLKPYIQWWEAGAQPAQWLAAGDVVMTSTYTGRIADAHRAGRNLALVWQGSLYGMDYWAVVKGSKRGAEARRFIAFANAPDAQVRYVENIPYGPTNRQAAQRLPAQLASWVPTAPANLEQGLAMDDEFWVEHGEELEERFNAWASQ
- EXPERIMENT SUMMARY: biochemical
Quick note: number first, unit second.

Example entries begin here.
# MOLECULE, ASSAYED TARGET, MEASURE, OBS VALUE
records = [
    ("NCCCCNCCCN", "PA4985 solute binding protein (Pseudomonas aeruginosa, UniProt Q9HUI0)", "Kd", "160000 nM"),
    ("NCCCC(=O)O [GABA, γ‐aminobutyrate]", "PA4985 solute binding protein (Pseudomonas aeruginosa, UniProt Q9HUI0)", "Kd", "580 nM"),
]

Here's the next entry for you.
Enquiry: Quick check: Kd of NCCCCC(=O)O [5‐AMV, 5‐aminovalerate] ?
Return: 1600 nM
